molecular target: HiBit-WIZ fusion protein (Homo sapiens, UniProt O95785+Q96SW2); experiment: Quantification of WIZ protein levels in HiBit tag fusion protein assay (WIZ HiBit assay in 293T cells); format: cell-based; conditions: WIZ HiBit assay in 293T cells; 10-point, 5-fold dose response, highest concentration 25 μM, about 18 hours; read-out: WIZ AC50
Sequence (O95785 whole entry, the tested form may be a part): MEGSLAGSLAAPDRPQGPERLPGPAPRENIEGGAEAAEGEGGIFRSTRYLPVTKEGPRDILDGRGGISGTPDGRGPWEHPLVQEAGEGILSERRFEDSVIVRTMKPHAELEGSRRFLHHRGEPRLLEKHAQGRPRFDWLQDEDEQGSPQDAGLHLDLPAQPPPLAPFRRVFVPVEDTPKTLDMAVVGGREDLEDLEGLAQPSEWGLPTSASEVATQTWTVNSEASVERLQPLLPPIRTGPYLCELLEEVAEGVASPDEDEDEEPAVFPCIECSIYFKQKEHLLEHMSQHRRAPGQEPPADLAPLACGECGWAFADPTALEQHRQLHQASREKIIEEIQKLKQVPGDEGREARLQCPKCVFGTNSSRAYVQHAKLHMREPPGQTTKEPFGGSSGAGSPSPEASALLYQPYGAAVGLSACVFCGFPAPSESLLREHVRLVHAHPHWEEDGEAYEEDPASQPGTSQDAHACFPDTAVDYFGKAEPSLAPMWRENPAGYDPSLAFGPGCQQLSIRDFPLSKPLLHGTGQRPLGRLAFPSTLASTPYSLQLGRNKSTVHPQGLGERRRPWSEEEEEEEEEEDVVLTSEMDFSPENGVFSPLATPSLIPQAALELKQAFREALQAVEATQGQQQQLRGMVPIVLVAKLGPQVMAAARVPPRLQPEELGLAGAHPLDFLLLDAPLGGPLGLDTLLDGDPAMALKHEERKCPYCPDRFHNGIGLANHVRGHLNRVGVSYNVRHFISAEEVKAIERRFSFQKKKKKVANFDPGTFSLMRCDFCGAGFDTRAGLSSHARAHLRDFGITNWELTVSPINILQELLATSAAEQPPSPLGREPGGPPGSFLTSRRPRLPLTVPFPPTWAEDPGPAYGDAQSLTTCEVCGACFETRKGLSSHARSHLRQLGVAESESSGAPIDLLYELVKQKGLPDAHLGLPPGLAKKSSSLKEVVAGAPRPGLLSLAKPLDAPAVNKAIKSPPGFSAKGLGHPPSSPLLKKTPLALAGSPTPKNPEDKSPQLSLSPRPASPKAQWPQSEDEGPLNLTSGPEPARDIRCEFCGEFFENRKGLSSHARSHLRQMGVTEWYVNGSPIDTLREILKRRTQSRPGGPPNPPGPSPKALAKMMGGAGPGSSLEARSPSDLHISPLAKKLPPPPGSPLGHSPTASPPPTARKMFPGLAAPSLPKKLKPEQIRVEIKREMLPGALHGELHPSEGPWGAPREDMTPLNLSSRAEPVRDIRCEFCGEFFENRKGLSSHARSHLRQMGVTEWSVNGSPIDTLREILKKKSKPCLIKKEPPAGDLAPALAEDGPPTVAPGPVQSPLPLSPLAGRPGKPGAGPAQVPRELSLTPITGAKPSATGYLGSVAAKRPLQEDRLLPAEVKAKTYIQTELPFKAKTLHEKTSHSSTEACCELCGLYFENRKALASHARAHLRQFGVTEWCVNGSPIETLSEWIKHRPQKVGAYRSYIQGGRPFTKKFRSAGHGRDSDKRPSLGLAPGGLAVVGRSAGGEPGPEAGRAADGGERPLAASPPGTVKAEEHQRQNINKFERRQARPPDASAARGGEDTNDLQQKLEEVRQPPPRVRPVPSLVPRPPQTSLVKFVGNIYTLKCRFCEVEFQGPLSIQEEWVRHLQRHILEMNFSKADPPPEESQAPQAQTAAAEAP
Sequence (Q96SW2 whole entry, the tested form may be a part): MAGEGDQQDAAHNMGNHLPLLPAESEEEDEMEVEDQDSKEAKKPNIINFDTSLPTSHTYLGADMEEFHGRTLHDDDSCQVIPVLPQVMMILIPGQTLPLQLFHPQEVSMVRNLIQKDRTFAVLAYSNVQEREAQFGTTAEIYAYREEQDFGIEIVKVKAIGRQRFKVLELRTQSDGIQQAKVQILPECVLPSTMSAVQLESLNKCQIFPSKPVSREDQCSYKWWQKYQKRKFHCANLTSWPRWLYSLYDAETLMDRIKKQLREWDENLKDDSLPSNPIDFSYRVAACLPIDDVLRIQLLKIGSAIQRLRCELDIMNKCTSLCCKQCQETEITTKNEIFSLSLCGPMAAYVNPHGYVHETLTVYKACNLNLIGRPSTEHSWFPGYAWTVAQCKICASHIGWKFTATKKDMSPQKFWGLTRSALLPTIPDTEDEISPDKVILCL
Sequence (Q16531 whole entry partner, the tested form may be a part): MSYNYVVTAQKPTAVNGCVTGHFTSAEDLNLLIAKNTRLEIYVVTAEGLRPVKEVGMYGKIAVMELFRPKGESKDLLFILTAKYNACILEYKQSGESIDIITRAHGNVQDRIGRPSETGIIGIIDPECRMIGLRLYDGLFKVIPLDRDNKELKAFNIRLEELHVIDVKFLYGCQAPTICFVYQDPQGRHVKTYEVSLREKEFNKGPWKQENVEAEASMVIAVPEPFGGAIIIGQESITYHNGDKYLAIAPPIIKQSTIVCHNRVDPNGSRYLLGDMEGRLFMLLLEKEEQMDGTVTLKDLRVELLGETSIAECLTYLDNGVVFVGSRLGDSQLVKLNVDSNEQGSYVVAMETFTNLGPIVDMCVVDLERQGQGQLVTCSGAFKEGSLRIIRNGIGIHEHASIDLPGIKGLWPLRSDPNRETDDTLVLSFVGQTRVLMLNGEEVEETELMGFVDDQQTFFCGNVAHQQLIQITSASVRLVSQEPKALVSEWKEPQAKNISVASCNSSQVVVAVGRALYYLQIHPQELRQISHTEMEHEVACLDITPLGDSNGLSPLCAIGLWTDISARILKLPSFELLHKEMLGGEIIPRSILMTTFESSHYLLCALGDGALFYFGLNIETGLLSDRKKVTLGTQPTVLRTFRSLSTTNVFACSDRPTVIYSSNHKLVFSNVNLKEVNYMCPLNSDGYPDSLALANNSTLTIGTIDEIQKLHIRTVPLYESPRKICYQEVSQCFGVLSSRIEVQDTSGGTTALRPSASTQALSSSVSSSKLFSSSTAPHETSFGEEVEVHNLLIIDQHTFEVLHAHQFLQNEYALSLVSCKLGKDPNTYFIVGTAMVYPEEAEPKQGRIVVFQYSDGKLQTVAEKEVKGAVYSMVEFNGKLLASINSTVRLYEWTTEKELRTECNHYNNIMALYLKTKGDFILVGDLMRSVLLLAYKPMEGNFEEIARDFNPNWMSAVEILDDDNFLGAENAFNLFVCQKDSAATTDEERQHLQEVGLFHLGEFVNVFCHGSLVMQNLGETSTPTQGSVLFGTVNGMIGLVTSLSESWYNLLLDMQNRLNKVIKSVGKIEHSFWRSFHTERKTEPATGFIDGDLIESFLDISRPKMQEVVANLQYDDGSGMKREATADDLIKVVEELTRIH

- compound: "O=C1CCC(N2Cc3cc(OC[C@@H]4CCCCN4C(=O)[C@@H]4CCCCN4C4CC4)ccc3C2=O)C(=O)N1 (some centres unmarked) [Compound I-72f]"
  unit-abbreviation: "nM"
  operator-symbol: ">"
  DC50: 25000
- compound: "CCc1ncc(C(=O)N2CCCC[C@H]2COc2ccc3c(c2)CN(C2CCC(=O)NC2=O)C3=O)s1 (some centres unmarked) [Compound I-72jf]"
  unit-abbreviation: "nM"
  operator-symbol: ">"
  DC50: 25000
- compound: "CCC(Oc1ccc2c(c1)CN(C1CCC(=O)NC1=O)C2=O)[C@@H]1CCCN1 (single isomer, unassigned) [Compound I-44]"
  unit-abbreviation: "nM"
  operator-symbol: ">"
  DC50: 25000
- compound: "CCN1CCC(F)(F)CC1COc1ccc2c(c1)CN(C1CCC(=O)NC1=O)C2=O (single isomer, unassigned) [I-252 (Isomer 3)]"
  unit-abbreviation: "nM"
  operator-symbol: "="
  DC50: 45
- compound: "COc1cccc2c(C(=O)N3CCCC[C@H]3COc3ccc4c(c3)CN(C3CCC(=O)NC3=O)C4=O)c[nH]c12 (some centres unmarked) [Compound I-72cq]"
  unit-abbreviation: "nM"
  operator-symbol: ">"
  DC50: 25000
- compound: "Cc1nccn1-c1ccc(CN2CCCC[C@@H]2COc2ccc3c(c2)CN(C2CCC(=O)NC2=O)C3=O)cc1 (some centres unmarked) [Compound I-50ew]"
  unit-abbreviation: "nM"
  operator-symbol: "="
  DC50: 26
- compound: "Cc1cc(-c2onc(C)c2C(=O)N2CCCC[C@H]2COc2ccc3c(c2)CN(C2CCC(=O)NC2=O)C3=O)no1 (some centres unmarked) [Compound I-72ep]"
  unit-abbreviation: "nM"
  operator-symbol: "="
  DC50: 1350
- compound: "O=C1CCC(N2Cc3cc(OC[C@H]4CCCCN4CC4CCOC4)ccc3C2=O)C(=O)N1 (single isomer, unassigned) [Compound I-213]"
  unit-abbreviation: "nM"
  operator-symbol: "="
  DC50: 120
- compound: "O=C1CCC(N2Cc3cc(OC[C@H]4CCCCN4Cc4ccc(F)cc4)ccc3C2=O)C(=O)N1 (some centres unmarked)"
  unit-abbreviation: "nM"
  operator-symbol: "="
  DC50: 3.8
- compound: "C[C@H](CC(=O)N1CCCC[C@H]1COc1ccc2c(c1)CN(C1CCC(=O)NC1=O)C2=O)c1ccccc1 (some centres unmarked) [Compound I-72gu]"
  unit-abbreviation: "nM"
  operator-symbol: ">"
  DC50: 25000
- compound: "O=C1CCC(N2Cc3cc(OC[C@@H]4CCCCN4Cc4ccc(C(=O)N5CCCC5)cc4)ccc3C2=O)C(=O)N1 (some centres unmarked) [Compound I-50j]"
  unit-abbreviation: "nM"
  operator-symbol: "="
  DC50: 3490
- compound: "CN(C)Cc1ncc(-c2ccc(Oc3cc(Cl)cnc3CN3CCCC[C@H]3COc3ccc4c(c3)CN(C3CCC(=O)NC3=O)C4=O)cc2)n1C (some centres unmarked) [Compound I-50z]"
  unit-abbreviation: "nM"
  operator-symbol: "="
  DC50: 3200
- compound: "O=C1CCC(N2Cc3cc(OC[C@H]4CCCCN4CCOCc4ccccc4)ccc3C2=O)C(=O)N1 (some centres unmarked)"
  unit-abbreviation: "nM"
  operator-symbol: "="
  DC50: 4
- compound: "Cc1noc(C)c1CN1CCCC[C@@H]1COc1ccc2c(c1)CN(C1CCC(=O)NC1=O)C2=O (some centres unmarked) [Compound I-50el]"
  unit-abbreviation: "nM"
  operator-symbol: ">"
  DC50: 25000
